Tested on: Trypanosoma cruzi
Assay Text: Antitrypanosomal activity against Trypanosoma cruzi trypomastigotes assessed as parasite growth inhibition
Assay type: functional, organism-based
Test Context: Trypanosoma cruzi; read-out: EC50
pEC50: −log10 of the molar value.
Overview of reported pEC50 across a group of compounds:
Metric Name: pEC50

Compound | Recorded Number
CCC/C=C/CCCOC(=O)c1ccc(C)cc1 | 4.93
CCCCC(CC)COC(=O)c1ccc(F)cc1 (stereo not drawn) | 4.37
CCCCC(CC)CNC(=O)c1ccc(F)cc1 (stereo not drawn) | 4.44
CCC/C=C/CCCNC(=O)c1ccc(C)cc1 | 4.42
CCC/C=C/CCCNC(=O)c1ccccc1 | 4.15
CCC/C=C/CCCOC(=O)c1ccc([N+](=O)[O-])cc1 | 5.25
CCCCC(CC)CNC(=O)c1ccc(Cl)cc1 (stereo not drawn) | 4.68
CCCCC(CC)COC(=O)c1ccc(C)cc1 (stereo not drawn) | 4.71
CCCCC(CC)CNC(=O)c1ccc([N+](=O)[O-])cc1 (stereo not drawn) | 4.66
CCC/C=C/CCCOC(=O)c1ccc(OC)cc1 | 4.81
CCCCC(CC)COC(=O)c1ccc([N+](=O)[O-])cc1 (stereo not drawn) | 4.94
CCC/C=C/CCCOC(=O)c1ccc(F)cc1 | 4.68
CCC/C=C/CCCNC(=O)c1ccc([N+](=O)[O-])cc1 | 4.61

====

Overview of reported selectivity ratio across a group of compounds:
Assay Text: Selectivity index, ratio of CC50 for cytotoxicity against mouse NCTC Fibroblast cells assessed as inhibition of cell growth to EC50 for antitrypanosomal activity against Trypanosoma cruzi trypomastigotes assessed as parasite growth inhibition
Type: toxicity, cell-based
Test Context: read-out: Ratio CC50/EC50
Metric Name: selectivity ratio

Compound | Result
CCCCC(CC)CNC(=O)c1ccc(C)cc1 (stereo not drawn) | > 9.4
CCC/C=C/CCCNC(=O)c1ccc(C)cc1 | > 5.3
CCC/C=C/CCCOC(=O)c1ccc([N+](=O)[O-])cc1 | > 35.1
CCC/C=C/CCCOC(=O)c1ccc(Cl)cc1 | > 10.1
CCCCC(CC)COC(=O)c1ccc(Cl)cc1 (stereo not drawn) | > 12.8
CCC/C=C/CCCNC(=O)c1ccc(OC)cc1 | > 7.7
CCCCC/C=C/CCCOC(=O)c1ccc(O)cc1 | > 2.7
CCC/C=C/CCCOC(=O)c1ccc(OC)cc1 | > 12.8
CCC/C=C/CCCNC(=O)c1ccc([N+](=O)[O-])cc1 | 6.5
CCCCC(CC)CNC(=O)c1ccc([N+](=O)[O-])cc1 (stereo not drawn) | > 9.1
CCC/C=C/CCCNC(=O)c1ccc(C(C)(C)C)cc1 | > 26
CCCCC(CC)CNC(=O)c1ccc(F)cc1 (stereo not drawn) | 4.3
CCCCC(CC)COC(=O)c1ccc(C)cc1 (stereo not drawn) | > 10.2

====

System: Trypanosoma cruzi
Assay Text: Antitrypanosomal activity against Trypanosoma cruzi trypomastigotes assessed as parasite growth inhibition
Assay type: functional, organism-based
Test Context: Trypanosoma cruzi; read-out: EC50
Metric Name: EC50 (µM)

Compound | Unit String | Recorded Number
CCC/C=C/CCCOC(=O)c1ccc(Cl)cc1 | µM | 19.8
CCCCC(CC)COC(=O)c1ccc(Cl)cc1 (centres undefined) | µM | 15.6
CCCCC/C=C/CCCOC(=O)c1ccc(O)cc1 | µM | 75.3
CCC/C=C/CCCNC(=O)c1ccc(Cl)cc1 | µM | 28.7
CCC/C=C/CCCNC(=O)c1ccc(C(C)(C)C)cc1 | µM | 7.7
CCC/C=C/CCCNC(=O)c1ccc(F)cc1 | µM | 71.4
CCC/C=C/CCCNC(=O)c1ccc(OC)cc1 | µM | 25.9
CCCCC(CC)CNC(=O)c1ccc(C)cc1 (centres undefined) | µM | 21.3
CCC/C=C/CCCOC(=O)c1ccccc1 | µM | 77.4

Taken from ChEMBL document CHEMBL5252587.
